So I've got a bunch of compounds here, and I need their z-score values.
- assayNotes: basal RPMI8226 viability, no added stimulus, profiling panel, cell-based, calcein-AM fluorescence, 48 h, PK04 Diversity Set (AID 1166);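 note: cells grown under basal conditions without added stimulus; test concentration not given here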
- experimentalContext: RPMI8226 myeloma viability, higher = more signal
Lab note: write the figure by itself, no unit.

Exercise: Any idea what z-score was measured for C=C(CCCC)C(=O)CC[C@H](OC(C)=O)c1cccc(OCCO)c1 ?
Key: -1.18

Exercise: Any idea what z-score was measured for C=CCN1C(=O)[C@]2(O[C@H](CCO)[C@@H]([Si](C)(C)c3ccc(OC)cc3)[C@@H]2C)c2cc(N3C(=O)c4cccc5cccc3c45)ccc21 ?
Key: -4.34

Exercise: Any idea what z-score was measured for COCCOC(=O)N1C(=O)[C@@]2(c3cc(C#Cc4ccc(OC)cc4)ccc31)[C@H](C(N)=O)[C@H]1C(=O)O[C@H](c3ccccc3)[C@H](c3ccccc3)N1[C@@H]2c1ccccc1OCCO ?
Key: -3.94

Exercise: Any idea what z-score was measured for O=C1OCCC/C=C\[C@H]2OC34C=CCN(Cn5nnc6ccccc65)C(=O)[C@H]3N(CCCCCCO)C(=O)[C@@H]4C12 (some centres undefined) ?
Key: -0.0474

----------
So I've got a bunch of compounds here, and I need their z-score values.
- assayNotes: FRG1 promoter luciferase signal modulators, primary screen, FRG1 inhibition for FSHD, cell-based, C2C12 myotubes, firefly/Renilla luciferase, luminescence (AID 1084)
- experimentalContext: higher = more signal, called active from +8 up or from −8 down
Lab note: write the figure by itself, no unit.

Exercise: Any idea what z-score was measured for COCCCNC(=O)[C@@]1(Cc2ccccc2N=[N+]=[N-])N=C(c2ccc(OCCCO)cc2)O[C@H]1c1ccccc1N=[N+]=[N-] ?
Key: -0.702

Exercise: Any idea what z-score was measured for COc1ccc([Si](C)(C)[C@@H]2[C@@H](CC(=O)N3Cc4ccccc4C[C@H]3CO)O[C@]3(C(=O)N(C)c4c(Br)cc(C)cc43)[C@H]2C)cc1 ?
Key: -3.35

Exercise: Any idea what z-score was measured for CCOC(=O)[C@H]1C/C=C/C[C@H](C(=O)OCC)C(=O)O[C@H]2[C@@H](OC)O[C@H](CO)[C@@H](OC(=O)Nc3ccc(C#N)cc3)[C@@H]2OC1=O ?
Key: -0.1

Exercise: Any idea what z-score was measured for COC(=O)[C@@]1(Cc2ccc(OC)cc2)[C@H]2c3cc(C(=O)N4CCCC4)n(Cc4ccccc4)c3C[C@H]2CN1C(=O)c1ccccc1 ?
Key: 0.42

Exercise: Any idea what z-score was measured for CN1C(=O)C2C=CC(C(O)c3cccs3)N(Nc3ccccc3)C2C1=O (stereo not drawn) ?
Key: -0.263

Exercise: Any idea what z-score was measured for COC(=O)C(CC#Cc1ccc2c(c1)[C@]1(C(=O)N2)[C@H](C(=O)O)[C@H]2C(=O)O[C@H](c3ccccc3)[C@H](c3ccccc3)N2[C@@H]1c1ccc(O)cc1)C(=O)OC ?
Key: 1.34

Exercise: Any idea what z-score was measured for COCCOC(=O)N1C(=O)[C@@]2(c3cc(C#Cc4ccc(OC)cc4)ccc31)[C@H](c1ccccc1OCCO)N1[C@H](c3ccccc3)[C@H](c3ccccc3)OC(=O)[C@H]1[C@@H]2C(=O)N1CCN(c2ncccn2)CC1 ?
Key: -1.23

Exercise: Any idea what z-score was measured for Cc1ccc(S[C@]2(C(=O)NCCN3CCOCC3)CC(=O)N(Cc3ccccc3Cl)[C@@H]2c2ccc(CO)cc2)cc1 ?
Key: -0.0709

Exercise: Any idea what z-score was measured for COCCOC(=O)N1C(=O)[C@@]2(c3cc(C#CCNC(N)=O)ccc31)[C@H](C(=O)NC[C@H](O)c1ccccc1)[C@H]1C(=O)O[C@H](c3ccccc3)[C@H](c3ccccc3)N1[C@@H]2c1ccccc1OCCO ?
Key: -0.864

Exercise: Any idea what z-score was measured for CN(C)C(=O)[C@@]1(Cc2ccccc2)N=C(c2ccc(OCCCO)cc2)O[C@H]1c1ccccc1N=[N+]=[N-] ?
Key: -1.66

Exercise: Any idea what z-score was measured for O=C(NCC(F)(F)F)[C@@H]1c2ccccc2C(=O)N(C2CCCCC2)[C@H]1c1ccc(CO)cc1 ?
Key: -1.46

Exercise: Any idea what z-score was measured for CN(C)C(=O)[C@]1(Cc2ccccc2N=[N+]=[N-])N=C(c2ccc(OCCCO)cc2)O[C@@H]1c1ccccc1 ?
Key: -2.65

Exercise: Any idea what z-score was measured for CO[C@H]1O[C@H](CO)[C@@H](OC(=O)Nc2ccc(Br)cc2)[C@H](OC(=O)c2cc3ccccc3[nH]2)[C@H]1OC(=O)c1cc2ccccc2[nH]1 ?
Key: -0.483

Exercise: Any idea what z-score was measured for O=C1NC(=O)C2C1C=CC(C(O)C(c1ccccc1)c1ccccc1)N2Nc1ccc(Cl)cc1Cl (stereo not drawn) ?
Key: 1.04

Exercise: Any idea what z-score was measured for O=C1C2C=CC(C(O)c3c(F)cccc3Cl)N(Nc3ccccc3)C2C(=O)N1c1ccccc1 (stereo not drawn) ?
Key: -3.84

Exercise: Any idea what z-score was measured for COc1cc2c(cc1OC)CN(C(=O)[C@@H]1[C@H]3C(=O)O[C@H](c4ccccc4)[C@H](c4ccccc4)N3[C@H](c3ccc(O)cc3)[C@@]13C(=O)Nc1ccc(C#CC4(O)CCCCCC4)cc13)CC2 ?
Key: 0.651

Exercise: Any idea what z-score was measured for C=CC[C@]1(C(=O)N2CCCCC2)N=C(c2ccc(OCCCO)cc2)O[C@H]1c1ccccc1 ?
Key: -1.11

Exercise: Any idea what z-score was measured for C=CCOC(=O)[C@H]1[C@@H]2C(=O)O[C@@H](c3ccccc3)[C@@H](c3ccccc3)N2[C@@H](c2ccc(OCCOC(=O)[C@@H]3C[C@@H]4C(=O)N[C@@H](CCCC[N+](C)(C)C)C(=O)N4[C@@H]3c3ccc(O)cc3)cc2)[C@]12C(=O)Nc1ccccc12 ?
Key: 0.277

Exercise: Any idea what z-score was measured for COc1ccc(CCN2C(=O)[C@@]3(Cc4ccccc42)c2ccccc2C(=O)N(Cc2ccccc2C(F)(F)F)[C@H]3c2ccc(CO)cc2)cc1 ?
Key: 0.453

Exercise: Any idea what z-score was measured for CC(C)[C@@H](CO)NC(=O)[C@H]1[C@@H](c2ccccc2)N(c2ccccc2)O[C@@H]1C ?
Key: -0.579

Exercise: Any idea what z-score was measured for O=C(C1N=C(c2ccc(OCCCO)cc2)N(c2ccccc2)O1)N1CCOCC1 (stereo not drawn) ?
Key: 2.27

Exercise: Any idea what z-score was measured for CCCN1C(=O)[C@]2(CCS(=O)(=O)c3ccccc3)N=C(c3ccc(OCCCO)cc3)O[C@@H]2c2ccccc21 ?
Key: -0.775

Exercise: Any idea what z-score was measured for CC(C)(C)OC(=O)CC[C@]1(C(=O)O)N=C(c2ccc(OCCCO)cc2)O[C@H]1c1ccccc1N=[N+]=[N-] ?
Key: 5.5

Exercise: Any idea what z-score was measured for O=C1c2ccccc2[C@@]2(Cc3ccccc3N(CC(F)(F)F)C2=O)[C@H](c2ccc(CO)cc2)N1Cc1ccccc1Cl ?
Key: -0.163

Exercise: Any idea what z-score was measured for COC(=O)[C@@]1(Cc2ccc(F)cc2)[C@H]2c3cc(C(=O)N(C)C)n(Cc4nc5ccccc5[nH]4)c3C[C@H]2CN1C(=O)c1ccccc1 ?
Key: -0.169

Exercise: Any idea what z-score was measured for CC(C)(C)OC(=O)CC[C@@]1(C(=O)NCCN2CCOCC2)N=C(c2ccc(OCCCO)cc2)O[C@@H]1c1ccccc1N=[N+]=[N-] ?
Key: 4.07

Exercise: Any idea what z-score was measured for COc1ccc([C@H]2OC[C@@H]3CC4(CC=CC4)C(=O)N32)cc1 ?
Key: 1.43

Exercise: Any idea what z-score was measured for COC(=O)[C@@]1(Cc2ccccc2)[C@H]2c3cc(C(=O)N(C)C)n(CCSCCO)c3C[C@H]2CN1C(=O)c1ccccc1 ?
Key: 1.27
